# ASSAY_PROCEDURE: in vitro
# DETAILS: human, hela cells, % viability
For each record, write down the corresponding viability at 28.5 h, 10 µM.
One number for each entry, in %.

For orientation, consider the following solved cases.
[[record]]
compound = "COc1ccc(I)cc1S(=O)(=O)NCc1ccccn1"
measured_attribute = "viability at 28.5 h, 10 µM"
recorded_measurement = 91.3

[[record]]
compound = "COc1ccc(-n2cc(-c3ccccn3)nn2)cc1OC"
measured_attribute = "viability at 28.5 h, 10 µM"
recorded_measurement = 103

[[record]]
compound = "O=C(NC(c1ccc(-c2ccccc2)cc1)c1cnccn1)C1CCN(CCCN2C(=O)C3CCCCC3C2=O)CC1 (centres unmarked)"
measured_attribute = "viability at 28.5 h, 10 µM"
recorded_measurement = 97.3

[[record]]
compound = "O=C(Nc1ccccc1C(=O)Nc1nnc(C(F)(F)F)s1)c1ccccc1Cl"
measured_attribute = "viability at 28.5 h, 10 µM"
recorded_measurement = 76.9

[[record]]
compound = "O=C(NCc1nnc(-c2cccs2)o1)C1c2ccccc2Oc2ccccc21"
measured_attribute = "viability at 28.5 h, 10 µM"
recorded_measurement = 94.8


List reported viability at 28.5 h, 10 µM for each of these compounds:
1. Cc1c(C(=O)Nc2cccc(-c3nc4ccccc4s3)c2)sc2nc[nH]c(=O)c12
2. FC(F)(F)c1cc(NCCC2CCCCN2)cc(C(F)(F)F)c1 (centres unmarked)
3. O=C(NCc1ccccc1)c1ccncc1
4. Cc1cc2ncn(CC(=O)N3CCC(F)CC3)c2cc1C

1: 80.5; 2: 88.6; 3: 108; 4: 104

###

# ASSAY_PROCEDURE: in vitro
# DETAILS: human, hela cells, % viability
MEASURED_ATTRIBUTE: viability at 28.5 h, 10 µM (%)
Numbers only, in %.

[[record]]
compound = "c1ccc2c(c1)OCC(c1nn3c(-c4ccncc4)nnc3s1)O2 (stereo not shown)"
measured_attribute = "viability at 28.5 h, 10 µM"
reading_unit = "%"
recorded_measurement = 107

[[record]]
compound = "COc1ccc(Nc2n[nH]c3nc(C)cc(=O)n23)cc1"
measured_attribute = "viability at 28.5 h, 10 µM"
reading_unit = "%"
recorded_measurement = 91.1

[[record]]
compound = "O=S(=O)(/C=C/c1ccccc1)Nc1cccc2[nH]ccc12"
measured_attribute = "viability at 28.5 h, 10 µM"
reading_unit = "%"
recorded_measurement = 103

[[record]]
compound = "O=C(CN1C(=O)[C@@H]2CCCN2c2ncccc21)NCc1ccccc1"
measured_attribute = "viability at 28.5 h, 10 µM"
reading_unit = "%"
recorded_measurement = 115


List reported viability at 28.5 h, 10 µM for each of these compounds:
1. COc1c(C)cc(Br)cc1C(=O)NC(=S)Nc1ccccc1N1CCN(C)CC1 [CBK267855C]
2. C[C@H](NC(=O)OC(C)(C)C)C(=O)NC[C@H]1CC[C@H](C(=O)O)CC1
3. Cc1cccnc1C(c1ccccc1)N(C)C(=O)C1CCN(C(=O)OCc2ccccc2)CC1 (stereo not shown)
4. COc1ccc(Nc2nc(-c3cccnc3)cs2)c(OC)c1
5. Cc1nc(-c2ccc(NC(=O)Cc3sc(C)nc3C)cc2)cs1
6. Cc1cc(NC(=O)c2cc3ccccc3o2)nc2c1c(=O)oc1ccccc12
7. O=C(c1cc(CO)ccn1)N(Cc1ccccn1)CC1CCCO1 (stereo not shown)
8. CCn1c(C)nnc1SCCNc1cc(C)nc2ccnn12

97.1
98.7
93.9
92.6
96
90.2
97
99.7

List reported viability at 28.5 h, 10 µM for each of these compounds:
1. CCC1Oc2ccc(C(O)c3ccco3)cc2N(Cc2cccc(OC)c2)C1=O (stereo not shown)
2. CCc1nn(CC(=O)N2CCCC(C)C2)c(=O)c2cc3occc3n12 (stereo not shown)
3. CN1CCN(c2ccc([N+](=O)[O-])c(NCc3ccccc3)c2)CC1
4. CC(=O)Nc1cccc(NC(=O)c2cc(-c3ccccc3)nn2-c2ccccc2)c1
5. Cc1cccc(C)c1NC(=O)CN1CCC(Oc2cncc(OCCN3CCOCC3)n2)C1 (stereo not shown)

1: 89.7; 2: 79.3; 3: 93.7; 4: 90.1; 5: 95.5

List reported viability at 28.5 h, 10 µM for each of these compounds:
1. O=C(CN(c1cccc(Cl)c1)S(=O)(=O)c1ccccc1)NN=C1CCCCC1
2. COc1cccc(N2CCN(C(C(=O)O)c3cn(C)c4cc(C(=O)O)ccc34)CC2)c1 (stereo not shown)

114
114

###

# ASSAY_PROCEDURE: in vitro
# DETAILS: human, hela cells, % viability
Mark T only for viability at 28.5 h, 10 µM values smaller than 90%; exact matches and larger values are F.

[[record]]
compound = "CC(=O)Nc1ccc(NC(=O)C2C3CCC(C3)C2C(=O)O)cc1 (centres unmarked)"
group_label = "F"

[[record]]
compound = "Nc1nnc(Sc2ccc([N+](=O)[O-])c3nonc23)s1"
group_label = "T"


Field: below-cutoff. Rule: recorded viability at 28.5 h, 10 µM strictly less than 90%. Subject: COCCNc1nccnc1-c1ccccc1CO
F

###

# ASSAY_PROCEDURE: in vitro
# DETAILS: human, hela cells, % viability
For each record, write down the corresponding viability at 28.5 h, 10 µM.
Give bare numbers, in %.

For orientation, consider the following solved cases.
[[record]]
molecule = "C[C@H](c1ccccc1)n1c(=O)[nH]c2ncc(-c3ccc(N(C)C)cc3)nc21 [CBK064367]"
reading_unit = "%"
recorded_measurement = 102

[[record]]
molecule = "COc1ncccc1NC(=O)CSCC#N [CBK306314]"
reading_unit = "%"
recorded_measurement = 108

[[record]]
molecule = "COc1ccccc1-c1cc(C(F)F)nc(S)c1C#N [CBK288358]"
reading_unit = "%"
recorded_measurement = 88.8


List reported viability at 28.5 h, 10 µM for each of these molecules:
1. CC(NC(=O)N(CCCN)Cc1c[nH]c(-c2ccccc2)n1)c1cccc2ccccc12 (centres unmarked) [CBK034672C]
2. N#Cc1ccc(C(=O)N2C[C@@H]3C[C@H](C2)c2ccc(-c4cccc(C#N)c4)c(=O)n2C3)cc1 [CBK289187]

119
101

###

# System: CTL2-GFP (C. trachomatis L2/434/Bu, GFP-expressing)
# Construct: L2/434/Bu, GFP-expressing
# ASSAY_PROCEDURE: microbe, parasite or virus in culture
# Set-up: Intracellular C. trachomatis growth in HeLa cells, bulk GFP fluorescence relative to DMSO
# DETAILS: Chlamydia trachomatis, HeLa, 28.5 h; bulk GFP, mean of 2; read-out: % of control remaining
Mark y only for activity at 10 µM values smaller than 30%; exact matches and larger values are n.

[[record]]
compound = "Cn1cc(C(c2ccc(OCC(=O)O)cc2)c2cn(C)c3ccccc23)c2ccccc21"
group_label = "y"


Field: below-cutoff. Rule: recorded activity at 10 µM strictly less than 30%. Subject: Cn1c(=O)c2c(ncn2Cc2ccccc2)n(C)c1=O
n

Next: CC(NC(=O)N(Cc1ccccc1C(F)(F)F)CC(C)(C)CN)c1cccc2ccccc12 (stereo not drawn) [CBK002422C]
n

Next: Fc1cc(Br)c(CNCc2ncc[nH]2)c(N2CCCCC2)c1F
y

Next: CCCc1cc(C(=O)N2CCN(c3nccc(OC)n3)CC2)[nH]n1
n

Next: O=C(NCc1cccnc1)/C(=C/c1ccc(-c2cccc(Cl)c2)o1)S(=O)(=O)c1ccccc1
y

Next: O=C(O)c1cn(C2CC2)c2cc(N3CCN(C(=O)Cc4ccsc4)CC3)c(F)cc2c1=O
y

###

# ASSAY_PROCEDURE: in vitro
# DETAILS: human, hela cells, % viability
For each record, write down the corresponding viability at 28.5 h, 10 µM.
Give bare numbers, in %.

List reported viability at 28.5 h, 10 µM for each of these molecules:
1. CC(=O)c1ccc(-c2ccc(C(=O)NCC3COc4ccccc4O3)c(N(C)C(C)=O)n2)s1 (stereo not drawn)
2. Cc1noc(C)c1CNS(=O)(=O)N1CCOC(c2ccccc2)C1 (stereo not drawn)
3. COCC(=O)NCC1Cc2cc(F)cc(-c3ccc(C(C)=O)s3)c2O1 (stereo not drawn)
4. Cc1nc(C)n(CC(=O)NCCCc2ccc(Cl)cc2)n1
5. CC(C)N(CCOc1nccnc1/C=C/c1ccccc1)C(C)C

114
83.2
98.4
90.9
96

List reported viability at 28.5 h, 10 µM for each of these molecules:
1. CSCCCNC(=O)c1ccc2c(c1)nc(N1CC[C@H](O)C1)n2C
2. Cc1cc(Cl)cc(Cl)c1S(=O)(=O)Nc1nc2c(s1)CN(C(=O)N1CCOCC1)CC2
3. CN(C(=O)CSc1nc2ccccc2nc1Cc1ccc(Cl)cc1)C1CCCCC1
4. Cc1ccc(-n2ncc3c(=O)n(CC(=O)Nc4ccc(C)cc4C)cnc32)cc1
5. CC(C)NC(=O)N1CCN(Cc2nc(-c3ccoc3)no2)CC1

[107, 92.6, 104, 83.4, 88.2]

List reported viability at 28.5 h, 10 µM for each of these molecules:
1. Cn1c(CN2CCN(c3ccc(C#N)cn3)CC2)nnc1C1CC1
2. CCNc1nc(-c2ccc(SCC)cc2)cn2ccnc12
3. O=C1COCC(=O)N1c1ccc(I)cc1
4. COCCNc1nc2c(c(N3CCCCCC3)n1)CCNCC2
5. CC(C)OC(=O)c1cccnc1N1CCN(CCCC(c2ccc(F)cc2)c2ccc(F)cc2)CC1 [CBK025340C]
6. COc1ccccc1-c1nccnc1OCCc1c[nH]c2ccccc12

92.5
114
87.5
104
103
87.7

List reported viability at 28.5 h, 10 µM for each of these molecules:
1. O=C(Cn1c(-c2cccs2)cc2cccnc21)NCC1CC1
2. CCN1CCN(c2ccc(NC(=O)Cc3cn4ccsc4n3)cc2)CC1
3. CN(Cc1ccccc1N1CCOCC1)C(=O)c1ccc2ncsc2c1
4. O=S(=O)(Cc1noc([C@@H]2C[C@@H](O)CN2Cc2ccc(F)cc2)n1)c1ccc(F)cc1
5. COc1ccccc1-c1cn2ccnc2c(N(C)CCN(C)C)n1
6. CC(C)(C)OC(=O)N1CCN(c2ccc(N)cn2)CC1

[106, 81.3, 108, 118, 97.5, 95.5]

List reported viability at 28.5 h, 10 µM for each of these molecules:
1. COc1ccc(N2C(=O)CC(N3CCN(c4ccc(C(=O)c5cccnc5)cc4)CC3)C2=O)cc1 (stereo not drawn)
2. CCC(=O)c1c(CC)n[nH]c1-c1c(Cl)cccc1Cl
3. CCc1c(C)nc2ccccc2c1SCCC(=O)N(C)C [CBK149718T]
4. CS(=O)(=O)Nc1ccc(-c2ccccc2)c2ccccc12
5. CC(=O)c1ccc(-c2nc(-c3ccoc3)cnc2N)cc1
6. O=C(CN1CCCC2(CCN(C(=O)c3ccoc3)C2)C1)Nc1ccc(F)c(Cl)c1 (stereo not drawn)

1: 92.7; 2: 96.1; 3: 99.9; 4: 93.2; 5: 97.3; 6: 92.7

List reported viability at 28.5 h, 10 µM for each of these molecules:
1. COc1ccnc(N2CCN(C(=O)c3ccc(C)n3C)CC2)n1
2. S=C(Nc1ccccc1Cl)Nc1ccccc1-n1cccc1
3. O=c1[nH]c2ncc(-c3cncc4ccccc34)nc2n1Cc1ccccc1
4. COCCn1cnnc1C(C)NC(=O)Cn1cc2ccccc2n1 (stereo not drawn)
5. O=C(O)c1ccc(COc2ccc3ccccc3c2/C=C2/NC(=O)N(c3ccccc3)C2=O)cc1
6. COc1cccc(CN2CCN(CCc3ccccc3)CC2)c1
7. CC(C)S(=O)(=O)N1CCC(C(=O)NC(c2ccccc2)c2ccc3ccccc3n2)CC1 (stereo not drawn)

1. 84.7
2. 81.6
3. 99.1
4. 92.1
5. 101
6. 90.5
7. 94.1

List reported viability at 28.5 h, 10 µM for each of these molecules:
1. COCCn1c(SC2CCN(C)C2=O)nc2ccccc21 (stereo not drawn)
2. COC(=O)CNC(c1cc(Br)ccc1N)c1ccccc1Cl (stereo not drawn)
3. CCC1CCCCN1C(=O)c1ccccc1C(=O)OC (stereo not drawn)
4. CC(C)[C@H](CO)Nc1nc(-c2ccccc2)cnc1N

1: 97.9; 2: 89; 3: 92.4; 4: 107

meta.source: paper PMC12040169
